Where do the numbers come from? From PubChem BioAssay (NCATS).

# System: CP250
# Procedure Text: qHTS profiling for inhibitors of Plasmodium falciparum proliferation (AID 504749); further: nearly all actives have a fitted effect of over 60% in size; further: potency means the concentration at half of the fitted maximal effect
# Measurement Parameters: P. falciparum in erythrocytes, SYBR Green DNA, 72 h; series mostly up to 28.7 µM
Inconclusive results are not listed. Activity calls are given as the source filed them. The call rests on the fitted dose curve; in most records, active means well fitted inhibition curve with a large enough effect; inconclusive means small, poorly fitted or top-dose-only effect; inactive means flat fitted curve, though single readings scatter.
Recorded Metric: Potency

// known answers, use as guide
CCC(=O)c1c(O)cc(O)cc1O; inactive
CCN(CC)CCOC(=O)C(c1ccccc1)C1CCCCC1 (configuration not stated); inactive
Nc1ccc(C(=O)O)cc1; inactive
C[N+]1(CCCCC[N+]2(C)CCCC2)CCCC1; inactive

Potency for CC(=O)c1ccc2c(c1)N(CCCN1CCC(CCO)CC1)c1ccccc1S2 is inactive

Potency for CCN(CC)C(=O)N1CCN(C)CC1 is inactive

Potency for C1CCc2nnnn2CC1 is inactive

Potency for Oc1ccc(Cl)cc1Sc1cc(Cl)ccc1O is inactive

Potency for COc1ccc(CCN2CCC(Nc3nc4ccccc4n3Cc3ccc(F)cc3)CC2)cc1 is 2.24 µM (active)

Potency for O=c1c(-c2ccccc2)c1-c1ccccc1 is 11.2 µM (active)

Potency for CC(=O)Oc1ccc(C(c2ccc(OC(C)=O)cc2)c2ccccn2)cc1 is inactive

Potency for NC(=NCCCCCCN=C(N)/N=C(\N)Nc1ccc(Cl)cc1)/N=C(\N)Nc1ccc(Cl)cc1 is 2.24 µM (active)

Potency for CC(C)NC[C@@H](O)COc1cccc2ccccc12 is inactive

* * *

# System Under Test: Glucocorticoid receptor (Homo sapiens)
# Procedure Text: GR-GFP Redistribution (AID 450); further: potency means the concentration at half of the fitted maximal effect
# Measurement Parameters: U2OS GR-GFP nuclear translocation, laser cytometry, 2 h
Active and inactive are the calls of the source.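 The calls were made as follows: active = compounds whose dose series gives a full or clear partial fitted curve of increased nuclear translocation; inconclusive = weak partial curve or effect only at the top dose; inactive = no dose-dependent translocation response.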
Hi! Could you answer with just one of these? active, inactive

Use these answered entries as a reference point.
CC(=O)OCC(=O)[C@@]12OC(C)(C)O[C@@H]1C[C@H]1[C@@H]3C[C@H](F)C4=CC(=O)C=C[C@]4(C)[C@@]3(F)[C@@H](O)C[C@@]12C; active
NCCc1ccn[nH]1; inactive
CC(C)COC(=O)OCN1C(=O)CN(CCN2CC(=O)N(COC(=O)OCC(C)C)C(=O)C2)CC1=O; inactive
C[C@H]1[C@H](NC(=O)/C(=N/OC(C)(C)C(=O)O)c2csc(N)n2)C(=O)N1S(=O)(=O)O (stereo in doubt); inactive
O=C(OCCOCCO)c1ccccc1Nc1cccc(C(F)(F)F)c1; inactive

Input: Would you mind telling me which call this test gave CCC(C(=O)OCCN(CC)CC)c1ccccc1 (stereo not drawn) ?
Output: inactive

Input: Would you mind telling me which call this test gave C[C@@H]1C(=O)NC2=Nc3cccc(Cl)c3CN21 ?
Output: inactive

Input: Would you mind telling me which call this test gave CC(C)N=C(N)/N=C(\N)Nc1ccc(Cl)cc1 ?
Output: inactive

Input: Would you mind telling me which call this test gave Cc1ccnc(NS(=O)(=O)c2ccc(N)cc2)n1 ?
Output: inactive

Input: Would you mind telling me which call this test gave CN=C(NC#N)NCCSCc1csc(N=C(N)N)n1 ?
Output: inactive

Input: Would you mind telling me which call this test gave CN1CCN(CCCN2c3ccccc3Sc3ccc(S(=O)(=O)N(C)C)cc32)CC1 ?
Output: inactive

Input: Would you mind telling me which call this test gave C[C@H](CCC(=O)O)[C@H]1CC[C@H]2[C@@H]3C(=O)C[C@@H]4CC(=O)CC[C@]4(C)[C@H]3CC(=O)[C@]12C ?
Output: inactive

Input: Would you mind telling me which call this test gave O=C1c2ccccc2C(=O)C1c1ccccc1 ?
Output: inactive

* * *

# System: CP266
# Procedure Text: qHTS profiling for inhibitors of Plasmodium falciparum proliferation (AID 504749); further: nearly all actives have a fitted effect of over 60% in size
# Measurement Parameters: P. falciparum in erythrocytes, SYBR Green DNA, 72 h; series mostly up to 28.7 µM
Records with an inconclusive call do not appear. Active and inactive are the calls of the source. Calls come from the whole dose curve; as a rule, active = well fitted inhibition curve with a large enough effect; inconclusive = small, poorly fitted or top-dose-only effect; inactive = flat fitted curve, though single readings scatter.
Recorded Metric: outcome

// known answers, use as guide
CCOC(=O)n1ccn(C)c1=S; inactive
OCc1ccccc1O; inactive
O=C(Nc1ccc(Oc2ccc(Cl)cc2)c(Cl)c1)c1cc(I)cc(I)c1O; inactive
CN1C(CCl)Nc2cc(Cl)c(S(N)(=O)=O)cc2S1(=O)=O (stereo not given); inactive

Okay, now this molecule:
outcome for Cc1cccn2c(=O)c(-c3nnn[nH]3)cnc12 is inactive

* * *

# System Under Test: Cytochrome P450 2D6 (Homo sapiens)
# Procedure Text: Cytochrome P450 family 2 subfamily D member 6 (CYP2D6) small molecule antagonists: luciferase biochemical (cell-free) qHTS assay (AID 1645840); further: nearly all actives have a fitted effect of over 55% in size
# Measurement Parameters: P450-Glo CYP2D6 enzyme, luciferin luminescence, 1 h; series mostly up to 57.4 µM
Inconclusive results are not listed. Active and inactive are the calls of the source. Calls follow the shape of the dose curve; as a rule, active = well fitted inhibition curve with a large enough effect in the repeat runs; inconclusive = weak or mixed curves; inactive = flat fitted curve, though single readings scatter.
Hi! Could you answer with just one of these? active, inactive

CCCCc1nc(Cl)c(CO)n1Cc1ccc(-c2ccccc2-c2nn[nH]n2)cc1; inactive
COc1ccc(CN2CCN(C(c3ccc(F)cc3)c3ccc(F)cc3)CC2)c(OC)c1OC; active

Input: Would you mind telling me which call this test gave COc1cc(/C=C/C(=O)O[C@H]2CC[C@]34C[C@]35CC[C@]3(C)[C@@H]([C@H](C)CCC=C(C)C)CC[C@@]3(C)[C@@H]5CC[C@H]4C2(C)C)ccc1O ?
Output: inactive

Input: Would you mind telling me which call this test gave O=C(OCC(O)CO)c1ccccc1Nc1ccnc2cc(Cl)ccc12 (configuration not stated) ?
Output: active

Input: Would you mind telling me which call this test gave CCCCCCCCCCCCCCCC[N+](C)(C)CCN(Cc1ccc(OC)cc1)c1ncccn1 ?
Output: active

Input: Would you mind telling me which call this test gave C/C=C/c1ccc(OC)cc1 ?
Output: inactive

Input: Would you mind telling me which call this test gave CCC(=O)c1c(O)cc(O)cc1O ?
Output: active

Input: Would you mind telling me which call this test gave COc1cc(OC)cc(OC)c1 ?
Output: inactive

Input: Would you mind telling me which call this test gave CN1CCCC(CC2c3ccccc3Sc3ccccc32)C1 (configuration not stated) ?
Output: active

Input: Would you mind telling me which call this test gave CC1=C(C(=O)O)N2C(=O)[C@@H](NC(=O)[C@H](N)c3ccc(O)cc3)[C@H]2SC1 ?
Output: inactive

Input: Would you mind telling me which call this test gave CCOC(=O)[C@H](CCc1ccccc1)N[C@@H](C)C(=O)N1Cc2ccccc2C[C@H]1C(=O)O ?
Output: inactive

Input: Would you mind telling me which call this test gave CC(=O)CC(c1ccc([N+](=O)[O-])cc1)c1c(O)c2ccccc2oc1=O (configuration not stated) ?
Output: inactive

* * *

# Procedure Text: qHTS of pediatric cancer cell lines to identify multiple opportunities for drug repurposing: Primary screen for A673 cells (AID 1347092); further: nearly all actives have a fitted effect of over 45% in size
# Measurement Parameters: A673 Ewing sarcoma viability, CellTiter-Glo ATP luminescence, 48 h; series mostly up to 46 µM
Results filed as inconclusive are left out. The source made the active and inactive calls. Calls follow the shape of the dose curve; as a rule, active = well fitted cell-killing curve with a large enough effect; inconclusive = small, poorly fitted or top-dose-only effect; inactive = no such curve, though single readings can be large or run the other way.
Hi! Could you answer with just one of these? 1 (yes) for active, 0 (no) for inactive

COC(=O)[C@@H]1CC2=CC(=O)CC[C@]2(C)[C@@]23O[C@@H]2C[C@@]2(C)[C@@H](CC[C@@]24CCC(=O)O4)[C@H]13; 0 (no)
CN=C(NC#N)NCCSCc1csc(N=C(N)N)n1; 0 (no)
CCN1CCN(c2cc3c(cc2F)c(=O)c(C(=O)O)cn3C2CC2)CC1; 0 (no)
C[C@H](CCC(=O)O)[C@H]1CC[C@H]2[C@@H]3C(=O)C[C@@H]4CC(=O)CC[C@]4(C)[C@H]3CC(=O)[C@]12C; 0 (no)
CCN1CCCC1=O; 0 (no)
O=C(CCCN1CCC(O)(c2ccc(Br)cc2)CC1)c1ccc(F)cc1; 0 (no)

Input: Would you mind telling me which call this test gave COc1ccc(OC)c(C(O)CNC(=O)CN)c1 (stereo not given) ?
Output: 0 (no)

* * *

# System: CP192
# Procedure Text: qHTS profiling for inhibitors of Plasmodium falciparum proliferation (AID 504749); further: nearly all actives have a fitted effect of over 60% in size
# Measurement Parameters: P. falciparum in erythrocytes, SYBR Green DNA, 72 h; series mostly up to 28.7 µM
Inconclusive results are not listed. Calls of active or inactive are those of the source. Calls come from the whole dose curve; as a rule, active = well fitted inhibition curve with a large enough effect; inconclusive = small, poorly fitted or top-dose-only effect; inactive = flat fitted curve, though single readings scatter.
Hi! Could you answer with just one of these? yes (1) for active, no (0) for inactive

Input: Would you mind telling me which call this test gave Cc1ccc(C(=O)C(C)CN2CCCCC2)cc1 (configuration not stated) ?
Output: no (0)

* * *

# System: CP185
# Procedure Text: qHTS profiling for inhibitors of Plasmodium falciparum proliferation (AID 504749); further: nearly all actives have a fitted effect of over 60% in size
# Measurement Parameters: P. falciparum in erythrocytes, SYBR Green DNA, 72 h; series mostly up to 28.7 µM
Records with an inconclusive call do not appear. Active and inactive are the calls of the source. The call rests on the fitted dose curve; in most records, active means well fitted inhibition curve with a large enough effect; inconclusive means small, poorly fitted or top-dose-only effect; inactive means flat fitted curve, though single readings scatter.
Hi! Could you answer with just one of these? 1 = active, 0 = inactive

CCN(CC)C(=O)/C(C#N)=C/c1cc(O)c(O)c([N+](=O)[O-])c1; 0

Input: Would you mind telling me which call this test gave C[C@H]1[C@H](NC(=O)/C(=N/OC(C)(C)C(=O)O)c2csc(N)n2)C(=O)N1S(=O)(=O)O (stereo in doubt) ?
Output: 0

Input: Would you mind telling me which call this test gave Cc1c(C(N)=O)cc([N+](=O)[O-])cc1[N+](=O)[O-] ?
Output: 0

Input: Would you mind telling me which call this test gave CCOC(=O)n1ccn(C)c1=S ?
Output: 0

Input: Would you mind telling me which call this test gave CCC(=O)c1c(O)cc(O)cc1O ?
Output: 0

Input: Would you mind telling me which call this test gave CCN1CCN(c2cc3c(cc2F)c(=O)c(C(=O)O)cn3C2CC2)CC1 ?
Output: 0

Input: Would you mind telling me which call this test gave N[C@H](CO)C(=O)O ?
Output: 0

Input: Would you mind telling me which call this test gave CCCCOc1ccc(C(=O)CCN2CCCCC2)cc1 ?
Output: 0

Input: Would you mind telling me which call this test gave CC(=O)Nc1c(I)cc(I)c(C(=O)O)c1I ?
Output: 0

Input: Would you mind telling me which call this test gave CN1CCC(=C2c3ccccc3Sc3ccccc32)CC1 ?
Output: 1

Input: Would you mind telling me which call this test gave CCCCCCCCCCCCCCCCCC(=O)OCC(O)CO (centres undefined) ?
Output: 0

Input: Would you mind telling me which call this test gave Oc1ccc(O)cc1 ?
Output: 0

Input: Would you mind telling me which call this test gave O=C(O)c1cc2cc(Cc3cccnc3)ccc2o1 ?
Output: 0

Input: Would you mind telling me which call this test gave CCCCOc1ccc(OCCCN2CCOCC2)cc1 ?
Output: 0

Input: Would you mind telling me which call this test gave CN(C)/N=N/c1nc[nH]c1C(N)=O ?
Output: 0

Input: Would you mind telling me which call this test gave Nc1ccc(/C=C/c2ccc(N)cc2S(=O)(=O)O)c(S(=O)(=O)O)c1 ?
Output: 0

Input: Would you mind telling me which call this test gave CC(C)(CO)[C@@H](O)C(=O)NCCCO ?
Output: 0

Input: Would you mind telling me which call this test gave CC(=O)c1ccc2c(c1)N(CCCN1CCC(CCO)CC1)c1ccccc1S2 ?
Output: 0

Input: Would you mind telling me which call this test gave CC(C)COC(=O)c1ccc(N)cc1 ?
Output: 0
